- EXPERIMENT_DESCRIPTION: self-splicing fitness, log relative to wild type (ln ratio); higher = more splicing; Tetrahymena group I intron in knt gene, E. coli kanamycin selection, DiMSum; sequences stand for … in CUCUCU…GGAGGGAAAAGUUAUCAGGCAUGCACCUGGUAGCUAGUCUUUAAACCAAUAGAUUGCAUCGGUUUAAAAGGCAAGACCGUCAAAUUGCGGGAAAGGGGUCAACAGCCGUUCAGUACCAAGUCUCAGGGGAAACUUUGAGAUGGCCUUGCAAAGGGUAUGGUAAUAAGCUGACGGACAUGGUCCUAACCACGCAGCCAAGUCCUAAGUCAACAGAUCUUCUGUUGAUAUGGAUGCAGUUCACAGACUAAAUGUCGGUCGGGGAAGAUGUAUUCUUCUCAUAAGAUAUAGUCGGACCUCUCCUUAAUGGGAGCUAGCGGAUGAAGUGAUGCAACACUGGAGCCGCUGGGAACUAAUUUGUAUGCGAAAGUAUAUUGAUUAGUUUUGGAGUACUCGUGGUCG;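 also: selection with 25 µg/mL kanamycin versus none on LB agar overnight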
- CONDITION_PARAMETERS: 37 °C
Listing of recorded self-splicing fitness (ln) by entry.
Give only the figure.

| ORDERED_RESIDUES | self-splicing fitness (ln) |
| --- | --- |
| UCAGAGCAAUAUUACGCAAA | -2.03 |
| AGAUAGCAAUAUUACGUUCU | -2.02 |

We now examine a further sequence.
Lookup: Respond only with self-splicing fitness (ln) recorded for "UUCAAGCAAUAUUACGUGGG"
Found: -1.97

====

Overview of recorded self-splicing fitness (ln) for various sequences
- EXPERIMENT_DESCRIPTION: self-splicing fitness, log relative to wild type (ln ratio); higher = more splicing; Tetrahymena group I intron in knt gene, E. coli kanamycin selection, DiMSum; sequences stand for … in CUCUCU…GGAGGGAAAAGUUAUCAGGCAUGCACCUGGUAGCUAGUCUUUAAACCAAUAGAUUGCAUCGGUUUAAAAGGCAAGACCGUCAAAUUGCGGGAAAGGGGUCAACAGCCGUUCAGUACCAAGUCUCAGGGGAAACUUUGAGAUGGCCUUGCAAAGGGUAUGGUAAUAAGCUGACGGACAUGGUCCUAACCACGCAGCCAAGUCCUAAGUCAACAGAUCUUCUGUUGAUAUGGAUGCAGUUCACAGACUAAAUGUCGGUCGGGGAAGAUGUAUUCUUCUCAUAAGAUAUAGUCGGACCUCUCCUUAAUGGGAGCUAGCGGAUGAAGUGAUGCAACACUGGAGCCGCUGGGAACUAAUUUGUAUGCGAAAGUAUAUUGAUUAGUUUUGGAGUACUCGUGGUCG
- CONDITION_PARAMETERS: 37 °C
Just the number, please.

Examples with answers:
| ORDERED_RESIDUES | self-splicing fitness (ln) |
| --- | --- |
| UGCGAGCAAUAUUACGAUCU | -1.06 |
| UCGGAGCAAUAUUACGGGAU | -2.81 |
| CGGAAGCAAUAUUACGUUCG | -2.29 |
| GGAUAGCAAUAUUACGAGUC | -1.06 |
| CGUUAGCAAUAUUACGGGUC | -2.01 |

Lookup: Annotate the sequence "UGUAAGCAAUAUUACGGGCC" with its measured self-splicing fitness (ln).
Found: -1.23

Lookup: # return recorded self-splicing fitness (ln) for input "UCCCAGCAAUAUUACGCUUC"
Found: -2.76

Lookup: Read off the recorded self-splicing fitness (ln) for "CGGUAGCAAUAUUACGCGGA"
Found: -1.26

Lookup: # return recorded self-splicing fitness (ln) for input "AUUCAGCAAUAUUACGCCUA"
Found: -0.501
